- study system: T1, mRBM20(513-609) delta-alpha3 (Mus musculus, UniProt Q3UQS8 513-609)
- T1 sequence: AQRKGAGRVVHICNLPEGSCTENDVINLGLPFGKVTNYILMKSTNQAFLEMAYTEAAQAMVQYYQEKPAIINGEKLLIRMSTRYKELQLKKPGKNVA
- assay text: ITC
measurement label: Kd (µM)
Express your answer in µM, writing the number without its unit.

I'd like to know its Kd. The binder in question is AUCUUA (ssRNA) 43

Values compiled from paper PMC7192616.
